These entries and their values trace back to ChEMBL document CHEMBL1129522.

STUDY SYSTEM: Sterol O-acyltransferase 1 (Rattus norvegicus) (UniProt O70536)
ASSAY: Chronic in vivo activity was measured by the concentration of high density lipoproteins (HDL) in cholesterol fed rats
Assay type: functional, organism-based
Kind request: treat 200% as inclusive, so Delta HDL at 200% or higher is t, anything lower is f.

[[record]]
structure_notation = "CCCN(CCC)S(=O)(=O)NC(=O)Nc1c(C(C)C)cccc1C(C)C"
study_system = "Sterol O-acyltransferase 1 (Rattus norvegicus) (UniProt O70536)"
qualitative_label = "f"


**Q:** Kindly determine if Delta HDL recorded for `COc1cc(C(C)(C)C)c(OC(=O)NS(=O)(=O)Nc2c(C(C)C)cccc2C(C)C)c(C(C)(C)C)c1` is above or exactly 200%.
**A:** f

**Q:** Okay, and `CC(C)CN(CC(C)C)S(=O)(=O)NC(=O)Nc1c(C(C)C)cccc1C(C)C` ?
**A:** f

**Q:** Okay, and `CC(C)c1cccc(C(C)C)c1OC(=O)NS(=O)(=O)Nc1ccccc1` ?
**A:** t

**Q:** Okay, and `Cc1cc(C(C)(C)C)c(OC(=O)NS(=O)(=O)Nc2c(C(C)C)cccc2C(C)C)c(C(C)(C)C)c1` ?
**A:** f

**Q:** Okay, and `COc1cccc(OC)c1OS(=O)(=O)NC(=O)Oc1c(C(C)C)cccc1C(C)C` ?
**A:** t

**Q:** Okay, and `CCCCCCCCN(C)S(=O)(=O)NC(=O)Oc1c(C(C)C)cccc1C(C)C` ?
**A:** f

**Q:** Okay, and `CCCCCCCCN(CCCCCCCC)S(=O)(=O)NC(=O)Oc1c(C(C)C)cccc1C(C)C` ?
**A:** f

**Q:** Okay, and `CC(C)c1cc(C(C)C)c(OS(=O)(=O)NC(=O)Oc2c(C(C)C)cccc2C(C)C)c(C(C)C)c1` ?
**A:** t

---

# maps each entry to its log10 of IC50
STUDY SYSTEM: Sterol O-acyltransferase 1 (Rattus norvegicus)
Sequence (O70536 whole entry): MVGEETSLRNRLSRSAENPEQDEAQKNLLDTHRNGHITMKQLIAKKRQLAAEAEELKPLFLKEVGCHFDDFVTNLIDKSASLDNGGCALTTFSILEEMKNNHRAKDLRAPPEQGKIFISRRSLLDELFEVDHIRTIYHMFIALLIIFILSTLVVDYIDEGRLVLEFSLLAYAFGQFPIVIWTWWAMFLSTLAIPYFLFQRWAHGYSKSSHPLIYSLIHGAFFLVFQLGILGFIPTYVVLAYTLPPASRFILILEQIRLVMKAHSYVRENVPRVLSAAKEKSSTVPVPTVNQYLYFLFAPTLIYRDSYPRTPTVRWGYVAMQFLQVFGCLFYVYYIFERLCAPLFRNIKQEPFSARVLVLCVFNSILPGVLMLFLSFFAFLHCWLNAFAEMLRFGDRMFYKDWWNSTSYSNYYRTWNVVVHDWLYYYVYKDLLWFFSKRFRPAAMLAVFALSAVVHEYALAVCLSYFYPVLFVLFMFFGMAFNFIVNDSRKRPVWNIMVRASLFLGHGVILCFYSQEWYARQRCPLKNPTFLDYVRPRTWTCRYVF
// do not treat as linear: log10 of IC50, unit µM

Reference set, count: 4
[[record]]
molecule = "CC(C)c1cccc(C(C)C)c1NC(=O)NS(=O)(=O)N(CC1CCCO1)CC1CCCO1 (stereo not given)"
metric_name = "log10 of IC50"
reported_measurement = 0.23

[[record]]
molecule = "CCCCCCNS(=O)(=O)NC(=O)Oc1c(C(C)(C)C)cc(C)cc1C(C)(C)C"
metric_name = "log10 of IC50"
reported_measurement = 1.29

[[record]]
molecule = "CCCCCCCCCCCCOS(=O)(=O)NC(=O)Oc1c(C(C)(C)C)cc(C)cc1C(C)(C)C"
metric_name = "log10 of IC50"
reported_measurement = 1.72

[[record]]
molecule = "CC(C)c1cc(C(C)C)c(OC(=O)NS(=O)(=O)Oc2c(C(C)C)cccc2C(C)C)c(C(C)C)c1"
metric_name = "log10 of IC50"
reported_measurement = 1.15


**Q:** What value of measured log10 of IC50 is listed for `CC(C)c1cccc(C(C)C)c1OC(=O)N(C)S(=O)(=O)Oc1c(C(C)C)cccc1C(C)C` ?
**A:** 1.70

**Q:** Okay, and `COc1cc(C(C)(C)C)c(OC(=O)NS(=O)(=O)NCC(c2ccccc2)c2ccccc2)c(C(C)(C)C)c1` ?
**A:** 1.91

**Q:** Okay, and `CC(C)c1cc(C(C)(C)C)cc(C(C)C)c1OC(=O)NS(=O)(=O)Oc1c(C(C)C)cccc1C(C)C` ?
**A:** 0.94

**Q:** Okay, and CCC(C)N(C(C)CC)S(=O)(=O)NC(=O)Nc1c(C(C)C)cccc1C(C)C (stereo not given) ?
**A:** -1.00

**Q:** Okay, and `Cc1cc(C(C)(C)C)c(OC(=O)NS(=O)(=O)Oc2ccccc2)c(C(C)(C)C)c1` ?
**A:** 1.95

---

STUDY SYSTEM: Sterol O-acyltransferase 1 (Rattus norvegicus)
Sequence (whole entry): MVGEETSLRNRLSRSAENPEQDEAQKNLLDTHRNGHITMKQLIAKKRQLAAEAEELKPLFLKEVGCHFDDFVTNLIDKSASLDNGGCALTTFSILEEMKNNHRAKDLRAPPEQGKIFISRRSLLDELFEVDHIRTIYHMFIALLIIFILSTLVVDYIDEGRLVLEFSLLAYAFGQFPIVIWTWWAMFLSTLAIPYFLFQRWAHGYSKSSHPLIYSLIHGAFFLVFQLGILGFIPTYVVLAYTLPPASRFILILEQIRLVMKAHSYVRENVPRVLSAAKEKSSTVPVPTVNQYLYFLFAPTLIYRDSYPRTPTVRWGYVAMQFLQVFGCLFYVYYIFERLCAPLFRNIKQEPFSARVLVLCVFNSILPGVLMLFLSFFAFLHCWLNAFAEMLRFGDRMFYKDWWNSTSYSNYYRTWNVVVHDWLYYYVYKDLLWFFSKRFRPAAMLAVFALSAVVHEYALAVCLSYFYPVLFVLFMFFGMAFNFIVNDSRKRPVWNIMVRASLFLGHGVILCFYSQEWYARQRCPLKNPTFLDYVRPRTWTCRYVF
ASSAY: Chronic in vivo activity was measured by the total cholesterol concentration levels in cholesterol fed rats
Format: functional, organism-based
METRIC NAME: Delta TC (%)
Reply with just the number (in %).

[[record]]
structure_notation = "CCCCCCCCN(CCCCCCCC)S(=O)(=O)NC(=O)Nc1c(C(C)C)cccc1C(C)C"
result_unit = "%"
reported_measurement = -56

[[record]]
structure_notation = "CC(C)c1cccc(C(C)C)c1OS(=O)(=O)NC(=O)Oc1c(C(C)(C)C)cc(C(C)(C)C)cc1C(C)(C)C"
result_unit = "%"
reported_measurement = -78


**Q:** What value of measured Delta TC is listed for `CCCCCCCCCCCCOS(=O)(=O)NC(=O)Oc1c(C(C)(C)C)cc(C)cc1C(C)(C)C` ?
**A:** -33

**Q:** Okay, and `CCCCCCCCN(C)S(=O)(=O)NC(=O)Nc1c(C(C)C)cccc1C(C)C` ?
**A:** -64

**Q:** Okay, and `CC(C)c1cc(C(C)C)c(OS(=O)(=O)NC(=O)Oc2c(C(C)C)cccc2C(C)C)c(C(C)C)c1` ?
**A:** -61

**Q:** Okay, and `CC(C)c1cccc(C(C)C)c1NC(=O)NS(=O)(=O)N(C(C)C)C1CCCCC1` ?
**A:** -63

**Q:** Okay, and `CCCCCN(CCCCC)S(=O)(=O)NC(=O)Nc1c(C(C)C)cccc1C(C)C` ?
**A:** -67

**Q:** Okay, and `CCCCCCCCN(CCCCCCCC)S(=O)(=O)NC(=O)Oc1c(C(C)C)cccc1C(C)C` ?
**A:** -80

**Q:** Okay, and `CC(C)c1cc(C(C)C)c(OC(=O)NS(=O)(=O)Oc2c(C(C)C)cc(C(C)C)cc2C(C)C)c(C(C)C)c1` ?
**A:** -62

**Q:** Okay, and `CC(C)c1cc(C(C)(C)C)cc(C(C)C)c1OC(=O)NS(=O)(=O)Oc1c(C(C)C)cccc1C(C)C` ?
**A:** -72

**Q:** Okay, and `CC(C)c1cccc(C(C)C)c1NC(=O)NS(=O)(=O)N(C1CCCCC1)C1CCCCC1` ?
**A:** -35

**Q:** Okay, and `CC(C)c1cccc(C(C)C)c1OC(=O)NS(=O)(=O)N(C(C)C)C1CCCCC1` ?
**A:** -71

**Q:** Okay, and `CC(C)c1cccc(C(C)C)c1OC(=O)NS(=O)(=O)N(c1ccccc1)c1ccccc1` ?
**A:** -37

**Q:** Okay, and `CCCCCCN(CCCCCC)S(=O)(=O)NC(=O)Nc1c(C(C)C)cccc1C(C)C` ?
**A:** -69

**Q:** Okay, and `CCCCCCCCCCCCCCN(C)S(=O)(=O)NC(=O)Nc1c(C(C)C)cccc1C(C)C` ?
**A:** -51
